- PROTOCOL DESCRIPTION: activity coefficient (dimensionless); of the first substance listed, at infinite dilution; xn = mol fraction of the nth substance listed
- SETTINGS: 342.8 K; 101 kPa; Liquid; Chromatography; x1 = 0
PROPERTY LABEL: activity coefficient
Form: value (number only, do not type unit).

Before answering, review these 6 worked examples.
What value of activity coefficient has been reported for the following compound? CCC(=O)CC [pentan-3-one] + CCCCCCCCCC[N+]1(C)CCCC1.O=S(=O)([N-]S(=O)(=O)C(F)(F)F)C(F)(F)F
0.5

Entry to check: CCCC(C)=O [pentan-2-one] + CCCCCCCCCC[N+]1(C)CCCC1.O=S(=O)([N-]S(=O)(=O)C(F)(F)F)C(F)(F)F
0.54

# iterate: ClC(Cl)(Cl)Cl [tetrachloromethane] + CCCCCCCCCC[N+]1(C)CCCC1.O=S(=O)([N-]S(=O)(=O)C(F)(F)F)C(F)(F)F
1.31

What do we get for CO [methanol] + CCCCCCCCCC[N+]1(C)CCCC1.O=S(=O)([N-]S(=O)(=O)C(F)(F)F)C(F)(F)F ?
1.36

Try this compound too: C1CCCCCC1 [cycloheptane] + CCCCCCCCCC[N+]1(C)CCCC1.O=S(=O)([N-]S(=O)(=O)C(F)(F)F)C(F)(F)F
13.3

# repeat for CCCCCCCCCC [decane] + CCCCCCCCCC[N+]1(C)CCCC1.O=S(=O)([N-]S(=O)(=O)C(F)(F)F)C(F)(F)F
8.7

New cases:
Request the reported activity coefficient associated with Cc1ccccc1 [toluene] + CCCCCCCCCC[N+]1(C)CCCC1.O=S(=O)([N-]S(=O)(=O)C(F)(F)F)C(F)(F)F
0.8

Further, for CCCCCCCCC [nonane] + CCCCCCCCCC[N+]1(C)CCCC1.O=S(=O)([N-]S(=O)(=O)C(F)(F)F)C(F)(F)F ?
7.65

Input C1COCCO1 [1,4-dioxane] + CCCCCCCCCC[N+]1(C)CCCC1.O=S(=O)([N-]S(=O)(=O)C(F)(F)F)C(F)(F)F
0.38

One more compound: CCCO [propan-1-ol] + CCCCCCCCCC[N+]1(C)CCCC1.O=S(=O)([N-]S(=O)(=O)C(F)(F)F)C(F)(F)F
1.32

And the next one, CCCCO [butan-1-ol] + CCCCCCCCCC[N+]1(C)CCCC1.O=S(=O)([N-]S(=O)(=O)C(F)(F)F)C(F)(F)F ?
1.64

Next compound up: CC(C)O [propan-2-ol] + CCCCCCCCCC[N+]1(C)CCCC1.O=S(=O)([N-]S(=O)(=O)C(F)(F)F)C(F)(F)F
1.25

Also check CC(C)CO [2-methyl-1-propanol] + CCCCCCCCCC[N+]1(C)CCCC1.O=S(=O)([N-]S(=O)(=O)C(F)(F)F)C(F)(F)F
1.39

Repeat for the following compound: Cc1ccc(C)cc1 [1,4-dimethylbenzene] + CCCCCCCCCC[N+]1(C)CCCC1.O=S(=O)([N-]S(=O)(=O)C(F)(F)F)C(F)(F)F
1.03
